- tested system: Cyclin-dependent kinase 1 (Homo sapiens, UniProt P06493)
- Sequence (P06493 whole entry): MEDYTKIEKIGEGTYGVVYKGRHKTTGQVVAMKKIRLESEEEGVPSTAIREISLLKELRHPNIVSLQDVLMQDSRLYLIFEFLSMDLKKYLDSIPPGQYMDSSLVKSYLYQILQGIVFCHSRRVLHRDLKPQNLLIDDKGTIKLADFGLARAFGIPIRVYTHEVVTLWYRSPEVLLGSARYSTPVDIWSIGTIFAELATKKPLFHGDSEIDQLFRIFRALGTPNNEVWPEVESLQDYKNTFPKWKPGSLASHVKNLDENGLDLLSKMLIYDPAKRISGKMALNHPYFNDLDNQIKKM
- assay summary: Inhibition of p34cdc2
outcome measure: pIC50
Friendly reminder that pIC50 comes from taking -log10 of the concentration in mol/L.

Q. Quick one: pIC50 of O=C1NC(=O)c2c1c1c3ccccc3n3c1c1c2c2ccccc2n1C1CCC3O1 ?
A. 6.60

----------
- tested system: Serine/threonine-protein kinase VRK1 (Homo sapiens)
- Sequence (whole entry): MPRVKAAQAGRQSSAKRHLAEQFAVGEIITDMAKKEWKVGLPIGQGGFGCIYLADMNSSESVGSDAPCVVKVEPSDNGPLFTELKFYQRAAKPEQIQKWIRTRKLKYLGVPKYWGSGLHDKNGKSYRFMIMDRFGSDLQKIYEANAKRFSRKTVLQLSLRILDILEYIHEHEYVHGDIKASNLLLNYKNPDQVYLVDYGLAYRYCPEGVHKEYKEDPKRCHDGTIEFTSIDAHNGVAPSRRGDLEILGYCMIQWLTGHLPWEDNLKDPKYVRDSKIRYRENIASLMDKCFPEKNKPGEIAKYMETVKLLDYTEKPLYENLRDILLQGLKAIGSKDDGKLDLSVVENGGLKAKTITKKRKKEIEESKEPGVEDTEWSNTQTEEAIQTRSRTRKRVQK
For each entry below, report its ΔTm value.
The reply should consist of the numeric value with the unit placed after it.

Q. Which ΔTm value is on record for COc1nccc(-c2c(-c3ccc(F)cc3)ncn2[C@H]2CC[C@H](O)CC2)n1 ?
A. 1.2 °C

Q. Request the reported ΔTm associated with NCCNc1ncc(C(N)=O)c(Nc2cccc(C(F)(F)F)c2)n1
A. 3.6 °C

Q. Item C[C@@H]1C[C@H]2O[C@@H]2/C=C\C=C\C(=O)Cc2c(Cl)c(O)cc(O)c2C(=O)O1 has what recorded ΔTm?
A. -0.2 °C

Q. Which value of ΔTm has been reported for O=c1cc(N2CCOCC2)oc2c(-c3ccccc3)cccc12 in the records?
A. 0.8 °C

Q. Fill in the blank: the reported ΔTm of O=Nc1c(-c2c(O)[nH]c3ccccc23)[nH]c2ccccc12 is ____.
A. 0.1 °C

Q. // returns reported ΔTm for input Cc1[nH]c(/C=C2\C(=O)Nc3ccc(S(=O)(=O)N(C)c4cccc(Cl)c4)cc32)c(C)c1C(=O)N1CCN(C)CC1
A. 1.5 °C

Q. Quick one: ΔTm for COc1cc(C[C@H]2C(=O)OC[C@@H]2Cc2ccc(OC)c(OC)c2)ccc1O ?
A. 0.7 °C

Q. So what's the measured ΔTm for this one? CC(=O)O/N=C1/C(=C2/C(=O)Nc3cc(Br)ccc32)Nc2ccccc21
A. 0.3 °C

Q. Sample CN(C)c1ncnc2nc[nH]c12 — what was its ΔTm?
A. 0 °C

Q. Need ΔTm of c1ccc(-c2n[nH]c3c2oc2ccccc23)cc1 , thanks.
A. 1 °C

Q. Record request: ΔTm value, item O=C1C(Cl)=C(N2C(=O)CCC2=O)C(=O)c2ccccc21
A. -0.6 °C

Q. Name the recorded ΔTm for O=C1C=C2C(=Nc3c2c2c(c4c3=NC3=C4CCC=C3)C=NC=2)CC1 .
A. 1.1 °C

Q. ΔTm for O=C1Nc2cc(Br)ccc2/C1=C1/Nc2ccccc2/C1=N\O ?
A. 1 °C

Q. I would be grateful if you could share the reported ΔTm for COC(=O)[C@]1(O)C[C@@H]2O[C@@]1(C)n1c3ccccc3c3c4c(c5c6ccccc6n2c5c31)C(=O)NC4 (single isomer, unassigned) .
A. 0.2 °C

Q. What measured ΔTm goes with C[C@@H](N)[C@H]1CC[C@H](C(=O)Nc2ccncc2)CC1 ?
A. 0.9 °C

Q. Endpoint output: ΔTm of O=C(O)/C=C/c1cc(CO)ccc1CO . Value?
A. 0.4 °C

Q. Given CC(C)(C)c1cc(C=C2C(=O)C=CC2=O)cc(C(C)(C)C)c1O , state its recorded ΔTm.
A. -0.6 °C

Q. For Cc1cc2ncc(-c3ccccc3)nc2cc1C , what is its reported ΔTm?
A. 1.2 °C

Q. // query ΔTm value for entry CCCNC(=O)Nc1ccc(Oc2ncnc3cc(OC)c(OC)cc23)cc1Cl
A. 0.3 °C

Q. What does the data say about its ΔTm? Entry: CC(C)c1cc(/C=C(\C#N)C(=O)NCCCc2ccccc2)cc(C(C)C)c1O
A. 1 °C
